Molecular target: Recombinant human his-tagged IGF R extracellular domain protein (human) (UniProt P08069)
Assay: SPR, Ab captured via anti-huIgG Fc, dissociation at pH 6
QUANTITY KIND: koff (s⁻¹)
Quick note: give the figure in s⁻¹, leave out the unit.

VRDN-02076 (antibody, V domains shown) VH: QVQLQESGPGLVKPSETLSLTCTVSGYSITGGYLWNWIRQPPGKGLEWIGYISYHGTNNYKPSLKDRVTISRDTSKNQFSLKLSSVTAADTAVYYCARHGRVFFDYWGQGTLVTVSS VL: DIVMTQSPLSLPVTPGEPASISCRSHQSIVHSNGNTYLQWYLQKPGQSPQLLIYKVSNRLYGVPDRFSGSGSGTDFTLKISRVEAEDVGVYYCFQGSHVPHTFGQGTKVEIK
6.76e-05

Now, please, on to the next binder.
query: # koff lookup, item VRDN-02058 (antibody, V domains shown) VH: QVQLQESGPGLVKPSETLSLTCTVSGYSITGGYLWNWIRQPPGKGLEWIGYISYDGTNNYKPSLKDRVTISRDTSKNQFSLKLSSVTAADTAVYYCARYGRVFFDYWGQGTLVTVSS VL: DIVMTQSPLSLPVTPGEPASISCRSSQSIVHSNGNTYLQWYLQKPGQSPQLLIYKVSNRLYGVPDRFSGSGSGTDFTLKISRVEAEDVGVYYCFQGSHVPWHFGQGTKVEIK
result: 9.52e-05
